- Experimental details: recombinant barcode read abundance after kanamycin selection (control-corrected) (log10(CPM+1)); higher = more efficient recombination; sequences stand for … in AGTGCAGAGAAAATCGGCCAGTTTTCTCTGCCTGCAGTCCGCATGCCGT…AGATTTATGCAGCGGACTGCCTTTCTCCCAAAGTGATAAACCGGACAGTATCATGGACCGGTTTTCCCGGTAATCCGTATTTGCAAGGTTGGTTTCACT; site = the 11-nt target
Measurement label: recombinant barcode read abundance (log10)
Response field accepts a number only; no unit should be typed.

Fill in: recombinant barcode read abundance (log10) of ATATACTCTTGGGTTCTAACCTGTTGCCG (site ATCTACTCTAG) is ___
0.0335

What about this sequence? AGATAGCCTTGGGTTCTAACCTGTTGCCT (site CGATAGCCTAG)
0.102

What about this sequence? ACAAGAGCTTGGGTTCTAACCTGTTGCCT (site ACGAGAGCTAG)
0.0837

What about this sequence? GAACGACCTTGGGTTCTAACCTGTTGCCT (site TAACGACCTAG)
0.144

What about this sequence? GCCACACCTTGGGTTCTAACCTGTTGCCT (site GCCATACCTAG)
0.153

What about this sequence? CACGGTCCTTGGGTTCTAACCTGTTGCGG (site AACGCTCCTCC)
0.0287

What about this sequence? GGCTGGGCTTGGGTTCTAACCTGTTGCCG (site GGCTGGGCTCG)
0.125

What about this sequence? ACCGGGACTTGGGTTCTAACCTGTTGCCT (site ACCGCGACTAG)
0.159

What about this sequence? CTACCAGCTTGGGTTCTAACCTGTTGCCT (site CTACCATCTAG)
0.0991

What about this sequence? CATTCCTCTTGGGTTCTAACCTGTTGCCT (site CTTTCCTCTAG)
0.0613

What about this sequence? GTAGACCCTTGGGTTCTAACCTGTTGCCG (site GTAGACCCTCG)
2.32

What about this sequence? GTGTACCCTTGGGTTCTAACCTGTTGCGC (site GTGTACCCTTC)
0.31

What about this sequence? ACAGAGGCTTGGGTTCTAACCTGTTGCCG (site ACTCAGGCTCG)
0.155

What about this sequence? AAGAACACTTGGGTTCTAACCTGTTGCCT (site GAGAACACTAG)
0.233

What about this sequence? TGAAGTACTTGGGTTCTAACCTGTTGCCT (site TGAAGTACTAG)
0.257

What about this sequence? TAAGGTCCTTGGGTTCTAACCTGTTGCAG (site TAGGGTCCTCC)
0.158

What about this sequence? CTGCAAGCTTGGGTTCTAACCTGTTGCCT (site CTTCAAGCTAG)
0.854

What about this sequence? ATAACTACTTGGGTTCTAACCTGTTGCTT (site ATAACTACTAA)
0.216

What about this sequence? TTCCTATCTTGGGTTCTAACCTGTTGCCT (site TGCCTATCTAG)
0.0749

What about this sequence? AGAGAGTCTTGGGTTCTAACCTGTTGCTT (site ATAGAGTCTAA)
0.602

What about this sequence? AGTTGTCCTTGGGTTCTAACCTGTTGCCT (site AGTTGTCCTAT)
0.296

---

- Experimental details: recombinant UMI read abundance after kanamycin selection (control-corrected) (log10(CPM+1)); higher = more efficient recombination; extreme values may be limits of the assay; sequences stand for … in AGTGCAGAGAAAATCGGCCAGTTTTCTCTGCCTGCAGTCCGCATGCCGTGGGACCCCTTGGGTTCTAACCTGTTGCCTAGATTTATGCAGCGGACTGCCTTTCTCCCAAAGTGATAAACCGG…AGGTTGGTTTCACT; site = the 11-nt donor
Exercise: for every item that follows, state its recorded recombinant UMI read abundance (log10).

Fill in: recombinant UMI read abundance (log10) of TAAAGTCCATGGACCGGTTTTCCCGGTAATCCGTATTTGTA (site TAGAGTCCTTA) is ___
0.358

What about this sequence? GCACAGCCATGGACCGGTTTTCCCGGTAATCCGTATTTGTT (site GCACAGCCTAA)
1.47

What about this sequence? CCGCATGCATGGACCGGTTTTCCCGGTAATCCGTATTTGCT (site CCGCATGCTAG)
0.291

What about this sequence? CGTTGAACATGGACCGGTTTTCCCGGTAATCCGTATTTGGA (site CGTTGAACTTC)
0.945

What about this sequence? ATTGACACATGGACCGGTTTTCCCGGTAATCCGTATTTGGT (site ATTGAGACTAC)
0.811

What about this sequence? CTTACTACATGGACCGGTTTTCCCGGTAATCCGTATTTGGC (site CTTACTACTGC)
0.688

What about this sequence? TGACTATCATGGACCGGTTTTCCCGGTAATCCGTATTTGCC (site TGACTATCTGG)
1.54

What about this sequence? TACCTTACATGGACCGGTTTTCCCGGTAATCCGTATTTGCG (site TACCTTACTCG)
0.0203

What about this sequence? ACACCTCCATGGACCGGTTTTCCCGGTAATCCGTATTTGAC (site ACACGTCCTGT)
0

What about this sequence? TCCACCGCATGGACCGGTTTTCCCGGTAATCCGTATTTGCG (site TCAACCGCTCG)
0.00833

What about this sequence? CCTTTAGCATGGACCGGTTTTCCCGGTAATCCGTATTTGTG (site CCTTTAGCTCA)
0.0063

What about this sequence? TATTCAACATGGACCGGTTTTCCCGGTAATCCGTATTTGTG (site TATTCAACTCA)
0.011

What about this sequence? GCGTAAACATGGACCGGTTTTCCCGGTAATCCGTATTTGCT (site GCGTAAACTAG)
2.73

What about this sequence? GGGGAGTCATGGACCGGTTTTCCCGGTAATCCGTATTTGCC (site AGGGAGTCTGG)
1.14

What about this sequence? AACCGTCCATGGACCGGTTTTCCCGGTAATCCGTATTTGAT (site AACAGTCCTAT)
0.0027

What about this sequence? TACATGACATGGACCGGTTTTCCCGGTAATCCGTATTTGCT (site TACTTGACTAG)
0.0568

What about this sequence? CTAGTATCATGGACCGGTTTTCCCGGTAATCCGTATTTGCC (site CTAGTATCTGA)
2.78

What about this sequence? CTTCACTCATGGACCGGTTTTCCCGGTAATCCGTATTTGTA (site CTTCGCTCTTA)
0.00683

What about this sequence? GAGCCCACATGGACCGGTTTTCCCGGTAATCCGTATTTGAT (site GAGCACACTAT)
0

What about this sequence? CTAAGTCCATGGACCGGTTTTCCCGGTAATCCGTATTTGGA (site CTAAGTCCTTC)
0.16

What about this sequence? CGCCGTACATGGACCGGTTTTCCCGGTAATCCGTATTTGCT (site CGGCGTACTAG)
0.0034

What about this sequence? AGGTTCTCATGGACCGGTTTTCCCGGTAATCCGTATTTGTG (site AGGTTCTCTCA)
2.32

What about this sequence? ACAGGGTCATGGACCGGTTTTCCCGGTAATCCGTATTTGCA (site ACAGTATCTTG)
1.89

What about this sequence? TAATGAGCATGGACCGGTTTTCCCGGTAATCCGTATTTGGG (site TAGTGAGCTCC)
0.0336

What about this sequence? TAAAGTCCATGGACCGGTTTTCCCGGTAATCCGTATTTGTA (site TAAAGTCCTAA)
0.0143

What about this sequence? CCATTTACATGGACCGGTTTTCCCGGTAATCCGTATTTGCT (site CCATTTACTAG)
0.933

What about this sequence? GCGAACCCATGGACCGGTTTTCCCGGTAATCCGTATTTGGG (site GCGAAACCTCC)
0.013

What about this sequence? ACTATACCATGGACCGGTTTTCCCGGTAATCCGTATTTGTA (site ACTATACCTTA)
0.0158

What about this sequence? TCGCAGCCATGGACCGGTTTTCCCGGTAATCCGTATTTGCT (site TCGCAGCCTAG)
0

What about this sequence? AGCCTTTCATGGACCGGTTTTCCCGGTAATCCGTATTTGTC (site AGCCTTTCTGT)
0.00535

What about this sequence? TTATGAGCATGGACCGGTTTTCCCGGTAATCCGTATTTGGG (site TCATGAGCTCC)
0.0145

What about this sequence? ACTCGCCCATGGACCGGTTTTCCCGGTAATCCGTATTTGTT (site ACTCGCCCTAA)
1.08

What about this sequence? CAAGCTGCATGGACCGGTTTTCCCGGTAATCCGTATTTGGG (site CAAGCTGCTCC)
0.0432

What about this sequence? CAAGCAACATGGACCGGTTTTCCCGGTAATCCGTATTTGCT (site CAAGCATCTAG)
0.289

What about this sequence? TGTACAACATGGACCGGTTTTCCCGGTAATCCGTATTTGCT (site TGTACAACTAG)
0.836

What about this sequence? TGTAGAACATGGACCGGTTTTCCCGGTAATCCGTATTTGGG (site TGTAGAACTCC)
0.00647
